Measured inhibition at 1 µM of individual entries
- measurement_target: human recombinant serotonin (5-Hydroxytryptamine) 5-HT7 receptor (Homo sapiens)
- Sequence (P34969 whole entry): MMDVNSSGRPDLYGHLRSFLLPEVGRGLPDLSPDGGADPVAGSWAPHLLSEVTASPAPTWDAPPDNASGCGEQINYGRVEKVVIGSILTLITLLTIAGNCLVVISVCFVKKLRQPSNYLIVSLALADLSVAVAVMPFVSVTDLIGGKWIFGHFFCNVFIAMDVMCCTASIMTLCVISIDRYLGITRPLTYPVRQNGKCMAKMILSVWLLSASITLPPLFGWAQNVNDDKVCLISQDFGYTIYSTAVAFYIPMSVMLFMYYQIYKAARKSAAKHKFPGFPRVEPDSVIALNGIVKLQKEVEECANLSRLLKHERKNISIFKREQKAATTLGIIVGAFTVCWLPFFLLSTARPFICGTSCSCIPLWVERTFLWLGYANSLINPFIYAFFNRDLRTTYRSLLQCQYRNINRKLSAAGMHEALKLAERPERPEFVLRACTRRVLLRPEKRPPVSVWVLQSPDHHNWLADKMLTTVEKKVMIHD
- experiment_summary: Serotonin 5-HT7 radioligand binding ([3H]LSD)
- test_settings: compound at 1 μM; read-out: Inhibition of ligand binding, Serotonin 5-HT7 (percent inhibition of specific binding)
# unit: % | format: bare number

Completed entries (count: 8):
* COc1ccc2c(c1)c1c(n2/C=C(/C)c2ccncc2)CCN(C)C1 | 98
* CN1CCc2c(c3cc(Cl)ccc3n2CC(C)(O)c2ccc(F)cc2)C1 (stereo not drawn) | 92
* C/C(=C/n1c2c(c3cc(Cl)ccc31)CN(C)CC2)c1ccccc1Cl | 100
* C/C(=C\n1c2c(c3cc(Cl)ccc31)CN(C)CC2)c1ccc(Cl)cc1 | 99
* C/C(=C\n1c2c(c3cc(Cl)ccc31)CN(C)CC2)c1cccnc1 | 93
* CCOC(=O)/C=C(/Cn1c2c(c3cc(C)ccc31)CN(C)CC2)c1ccc(F)cc1 | 71
* COc1ccc(C#Cn2c3c(c4cc(C)ccc42)CN(C)CC3)cc1F | 77
* Cc1ccc2c(c1)c1c(n2C#Cc2ccc(Cl)cc2)CCN(C)C1 | 84

Value lookup for inhibition at 1 µM; key = C/C(=C\n1c2c(c3c(Cl)c(Cl)ccc31)CN(C)CC2)c1ccncc1 74

Moving on to the next molecule: C/C(=C\n1c2c(c3cc(Cl)c(Cl)cc31)CN(C)CC2)c1ccncc1 97

Moving on to the next molecule: C=C(Cn1c2c(c3cc(C)ccc31)CN(C)CC2)c1ccc(F)cc1 103

Moving on to the next molecule: CCOC(=O)/C=C(/Cn1c2c(c3cc(C)ccc31)CN(C)CC2)c1ccccc1 101

Moving on to the next molecule: COc1ccc(C(C)(O)Cn2c3c(c4cc(C)ccc42)CN(C)CC3)cc1F (stereo not drawn) 103

---

- measurement_target: human dopamine D2L receptor (Homo sapiens, UniProt P14416)
- Sequence (P14416 whole entry): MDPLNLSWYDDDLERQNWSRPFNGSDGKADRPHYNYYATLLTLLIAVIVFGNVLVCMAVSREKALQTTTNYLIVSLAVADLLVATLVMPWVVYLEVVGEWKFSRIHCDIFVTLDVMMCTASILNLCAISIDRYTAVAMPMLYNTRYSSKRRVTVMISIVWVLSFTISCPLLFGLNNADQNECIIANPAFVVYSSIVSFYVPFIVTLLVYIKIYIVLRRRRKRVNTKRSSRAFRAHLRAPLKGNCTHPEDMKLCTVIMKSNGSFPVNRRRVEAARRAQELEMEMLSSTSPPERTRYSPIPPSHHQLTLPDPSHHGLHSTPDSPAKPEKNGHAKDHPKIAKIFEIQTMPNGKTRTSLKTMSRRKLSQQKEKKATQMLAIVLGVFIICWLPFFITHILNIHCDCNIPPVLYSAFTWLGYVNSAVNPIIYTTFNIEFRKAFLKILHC
- experiment_summary: Dopamine D2L radioligand binding ([3H]Spiperone)
- test_settings: compound at 1 μM; […] [3H]Spiperone; read-out: Inhibition of ligand binding, Dopamine D2L (percent inhibition of specific binding)
- Text: Non-specific binding was estimated in the presence of […] Haloperidol. Receptor proteins were filtered and washed, the filters were then counted to determine [^3H]Spiperone specifically bound. […] Biochemical assay results are presented as the percent inhibition of specific binding in Table 9.
Short version: inhibition at 1 µM at least 60% is 1 (yes), less is 0 (no).

Consider the worked cases shown below.
* CN1CCc2c(c3cccc(Cl)c3n2C[C@@](C)(O)c2ccncc2)C1 | 0 (no)
* C/C(=C\n1c2c(c3cc(Cl)ccc31)CN(C)CC2)c1cc(C)nc(C)c1 | 1 (yes)

Decide: inhibition at 1 µM of C/C(=C(/C)n1c2c(c3cc(C)ccc31)CN(C)CC2)c1ccncc1 >= 60%? 1 (yes)

Moving on to the next compound: C/C(=C/n1c2c(c3cc(Cl)ccc31)CN(C)CC2)c1ccncc1C 1 (yes)

Moving on to the next compound: Cc1ccc2c(c1)c1c(n2CC(O)(c2ccccc2)c2ccccc2)CCN(C)C1 0 (no)

Moving on to the next compound: C/C(=C\n1c2c(c3cc(Cl)ccc31)CN(C)[C@@H](C)C2)c1ccncc1 1 (yes)

Moving on to the next compound: C=C(Cn1c2c(c3cccc(Cl)c31)CN(C)CC2)c1ccc(F)cc1 1 (yes)

---

- measurement_target: human recombinant histamine H2 receptor (Homo sapiens, UniProt P25021)
- Construct: expressed in transfected cells; host or cells: Chinese hamster ovary (CHO) K1 cells
- Sequence (P25021 whole entry): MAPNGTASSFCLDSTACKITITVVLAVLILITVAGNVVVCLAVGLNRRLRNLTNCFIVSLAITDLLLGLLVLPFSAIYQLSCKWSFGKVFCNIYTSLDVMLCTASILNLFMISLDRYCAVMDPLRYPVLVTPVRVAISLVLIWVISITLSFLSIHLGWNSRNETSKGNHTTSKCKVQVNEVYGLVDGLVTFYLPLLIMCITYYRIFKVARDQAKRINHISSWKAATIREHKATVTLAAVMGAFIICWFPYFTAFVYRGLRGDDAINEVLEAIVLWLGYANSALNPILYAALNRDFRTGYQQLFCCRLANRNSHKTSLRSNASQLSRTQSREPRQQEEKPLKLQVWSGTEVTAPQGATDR
- experiment_summary: Histamine H2 radioligand binding ([125I]Aminopotentidine)
- test_settings: read-out: Histamine Binding (1 μM) H2, percent inhibition of specific binding, 1 μM
Measured inhibition at 1 µM of individual entries
# unit: % | format: bare number

Completed entries (count: 5):
• Cc1ccc2c(c1)c1c(n2C/C(=C/C(=O)O)c2ccc(F)cc2)CCN(C)C1 [Compound No. 352] = 15
• C/C(=C\n1c2c(c3cc(C)ccc31)CN(C)CC2)c1cccnc1 [Compound 91] = 52
• CN1CCc2c(c3cc(Cl)ccc3n2C/C(=C\CCO)c2ccc(F)cc2)C1 [Compound No. 348] = 73
• C/C(=C\n1c2c(c3ccc(C(F)(F)F)cc31)CN(C)CC2)c1ccc(F)cc1 [Compound 229] = 96
• Cc1ccc2c(c1)c1c(n2CC(C)(O)c2ccc(F)cc2)CCN(C)C1 (centres unmarked) [Compound 55] = 88

Value lookup for inhibition at 1 µM; key = COc1ccc(/C(C)=C/n2c3c(c4cc(C)ccc42)CN(C)CC3)cc1F [Compound 214] 100

Moving on to the next compound: C/C(=C\n1c2c(c3cc(Cl)ccc31)CN(C)CC2)c1ccc(Cl)c(Cl)c1 [Compound 103] 101

Moving on to the next compound: CN1CCc2c(c3cc(Cl)ccc3n2/C=C(\c2ccc(F)cc2)C2CC2)C1 [Compound 203] 99

Moving on to the next compound: Cc1ccc(C(O)Cn2c3c(c4ccccc42)CN(C)CC3)cc1 (racemic) [Compound 53] 58

Moving on to the next compound: COc1ccc(C(C)(O)Cn2c3c(c4cc(C)ccc42)CN(C)CC3)cc1 (centres unmarked) [Compound 174] 80

Moving on to the next compound: Cc1ccc2c(c1)c1c(n2CC(O)(c2ccc(F)cc2)C2CCCCC2)CCN(C)C1 (centres unmarked) [Compound 171] 85

Moving on to the next compound: C/C(=C/n1c2c(c3cc(Cl)ccc31)CN(C)CC2)c1ccccc1Cl [Compound 237] 95

---

Measured inhibition at 1 µM of individual entries
- measurement_target: human recombinant serotonin (5-Hydroxytryptamine) 5-HT6 receptor (Homo sapiens)
- Construct: expressed in transfected cells; host or cells: human HeLa cells
- Sequence (P50406 whole entry): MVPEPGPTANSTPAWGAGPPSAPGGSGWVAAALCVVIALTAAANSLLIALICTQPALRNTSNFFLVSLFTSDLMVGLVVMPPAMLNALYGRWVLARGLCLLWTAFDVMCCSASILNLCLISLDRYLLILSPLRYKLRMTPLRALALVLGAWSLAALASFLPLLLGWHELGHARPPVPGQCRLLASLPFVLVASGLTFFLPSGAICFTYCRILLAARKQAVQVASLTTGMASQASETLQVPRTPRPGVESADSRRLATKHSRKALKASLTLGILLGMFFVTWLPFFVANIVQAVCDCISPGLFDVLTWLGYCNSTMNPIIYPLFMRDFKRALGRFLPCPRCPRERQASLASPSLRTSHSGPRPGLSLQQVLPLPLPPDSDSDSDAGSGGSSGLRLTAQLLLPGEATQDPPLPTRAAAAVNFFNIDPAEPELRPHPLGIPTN
- experiment_summary: Serotonin 5-HT6 radioligand binding ([3H]LSD)
- test_settings: compound at 1 μM; read-out: Inhibition of ligand binding, Serotonin 5-HT6 (percent inhibition of specific binding)
Your answer should be a number followed by the unit of measure.

Completed entries (count: 10):
• COc1ccc(C(C)(O)Cn2c3c(c4cc(C)ccc42)CN(C)CC3)cc1F (stereo not drawn) = 85%
• Cc1ccc2c(c1)c1c(n2CC(C)(O)c2cccnc2)CCN(C)C1 (stereo not drawn) = 50%
• COc1ccc(/C(C)=C/n2c3c(c4cc(Cl)ccc42)CN(C)CC3)cc1 = 97%
• C/C(=C\n1c2c(c3cc(Cl)ccc31)CN(C)CC2)c1ccc(Cl)c(Cl)c1 = 89%
• COc1ccc(C#Cn2c3c(c4cc(C)ccc42)CN(C)CC3)cc1F = 89%
• Cc1ccc2c(c1)c1c(n2CC(O)(c2ccccc2)c2ccc(F)cc2)CCN(C)C1 (stereo not drawn) = 82%
• Cc1ccc(C(O)Cn2c3c(c4cc(C)ccc42)CN(C)CC3)cc1 (racemic) = 95%
• CCC/C=C(/Cn1c2c(c3cc(Cl)ccc31)CN(C)CC2)c1ccc(F)cc1 = 103%
• C/C(=C\n1c2c(c3cc(Cl)ccc31)CN(C)CC2)c1ccncc1 = 103%
• Cc1ccc(/C=C/Cn2c3c(c4cc(Cl)ccc42)CN(C)CC3)cn1 = 62%

Value lookup for inhibition at 1 µM; key = CCOC(=O)/C=C(/Cn1c2c(c3cc(C)ccc31)CN(C)CC2)c1ccccc1 101%

Moving on to the next molecule: C/C(=C\n1c2c(c3cc(Cl)ccc31)CN(C)CC2)c1ccccc1 104%

Moving on to the next molecule: CCCC/C(=C\n1c2c(c3cc(Cl)ccc31)CN(C)CC2)c1ccc(F)cc1 103%

Moving on to the next molecule: C/C(=C\n1c2c(c3cc(Cl)ccc31)CN(C)CC2)c1ccccc1Cl 99%

Moving on to the next molecule: C=C(Cn1c2c(c3cc(Cl)ccc31)CN(C)CC2)c1ccc(F)cc1 101%

Moving on to the next molecule: C/C(=C\n1c2c(c3cc(C)ccc31)CN(C)CC2)c1cc(F)c(F)cc1Cl 95%

Moving on to the next molecule: COc1ccc(/C(C)=C/n2c3c(c4cc(C)ccc42)CN(C)CC3)cc1 98%

Moving on to the next molecule: CN1CCc2c(c3cc(Cl)ccc3n2CC(C)(O)c2cccnc2)C1 (stereo not drawn) 65%

---

- measurement_target: human recombinant serotonin (5-Hydroxytryptamine) 5-HT7 receptor (Homo sapiens)
- experiment_summary: Serotonin 5-HT7 radioligand binding ([3H]LSD)
- test_settings: compound at 0.1 μM; read-out: Inhibition of ligand binding, Serotonin 5-HT7 (percent inhibition of specific binding)
// thresholds for inhibition at 0.1 µM classes: L: < 30%; M: ≥ 30% and < 80%; H: ≥ 80%

Consider the worked cases shown below.
* C/C(=C\n1c2c(c3ccc(Cl)cc31)CN(C)CC2)c1ccc(C)nc1 [Compound 253] | M
* C/C(=C\n1c2c(c3cc(Cl)c(Cl)cc31)CN(C)CC2)c1ccc(F)cc1 [Compound 248] | M
* COc1ccc(C(C)(O)Cn2c3c(c4cc(C)ccc42)CN(C)CC3)cc1 (stereo not drawn) [Compound 174] | M
* CN1CCc2c(c3cc(Cl)ccc3n2CC(C)(O)c2ccncn2)C1 (stereo not drawn) [Compound 198] | L

Here's the next entry for you.
Using the reported inhibition at 0.1 µM, which band applies to Cc1ccc2c(c1)c1c(n2/C=C(/c2ccncc2)C(C)(C)C)CCN(C)C1 [Compound 280] ? L
